Provenance of the data: patent US20220362394A1

- System: U266B1
- experiment notes: Cell killing with drug-conjugated 2° antibody (internalization), U266B1
- Type: cell-based, human
- condition label: Conjugate P 2° antibody 20 nM, 72 hrs
quantity name: EC50 (nM)
Use nM as the unit, but write only the number.

molecule	measurement unit	EC50
10F4: chicken antibody, VH SEQ ID NO 203, VL SEQ ID NO 225 (antibody, V domains shown, Synthetic 10F4, VH; Synthetic 10F4, VL) VH: AVTLDESGGGLQTPGGALSLVCKASGFTFSGYNMGWVRQAPGKGLEYVAGITYGTGSYTAYGAAVKGRATISRDNGQSTLRLQLNNLRAEDTATYYCARGGGLNSYGCSGANIDAWGHGTEVIVSS VL: ALTQPSSVSANLGGTVKITCSGGGNYFGSYYYGWYQQKAPGSAPVTVIYNNNNRPSDIPSRFSGSTSGSTSTLTISGVRAEDEAVYFCGGFDSSTDAIFGAGTTLTVL	nM	0.36

For the molecule 10G5: chicken antibody, VH SEQ ID NO 197, VL SEQ ID NO 219 (antibody, V domains shown, Synthetic 10G5, VH; Synthetic 10G5, VL) VH: AVTLDESGGGLQTPGGVLSLVCKASGFTFSSFNMFWVRQAPGKGLEWVAYISNDGSSTSYGPAVKGRATISRDNGQSTVRLQLNNLRAEDTATYFCAKTTCIGSGGCIDTWGHGTEVIVSS VL: ALTQPSSVSANPGETVKITCSGGNYDYGWYQQKSPGSAPVTLIYYNNKRPSDIPSRFSGSKSGSTGTLTITGVQAEDEAIYYCANVDSTDDVFGAGTTLTVL , what EC50 is on record?
1.9

What value of EC50 has been recorded for this entry: 10E10: chicken antibody, VH SEQ ID NO 212, VL SEQ ID NO 234 (antibody, V domains shown, Synthetic 10E10, VH; Synthetic 10E10, VL) VH: AVTLDESGGGLQTPGGGLSLVCKASGFTFSSYGMGWMRQAPGKGLEFVARINSGGSSYTDYGSAVKGRATISRDDGQSTVRLQLNNLRAEDTGIYYCTRGGGGASIDGWGHGTEVIVSS VL: ALTQPSSVSANPGETVKITCSGGGNYAGSYYYGWYQQKSPGSAPLTVIYNSNNRPSDIPSRFSGSLSGSTGTLTITGVRAEDEAVYFCGGFDSSTDAIFGAGTTLTVL
2.5

# lookup: EC50 of 10H1: chicken antibody, VH SEQ ID NO 211, VL SEQ ID NO 233 (antibody, V domains shown, Synthetic 10H1, VH; Synthetic 10H1, VL) VH: AVTLDESGGGLQTPGGALSLVCKASGFTFSGYGMGWMRQAPGKGLEYVARINSAGSDTDYGAAVKGRATISRDNGQSTVRLQLNNLRAEDTATYFCTRGGGGASIDGWGHGTEVIVSS VL: ALTQPSSVSANPGETVKITCSGGGNYYGSYYYGWYQQKAPGSAPVTVIYNNNNRPSNIPSRFSGSKSGSTGTLTITGVQAEDEAVYFCGGFDSSSDAIFGAGTTLTVL
0.29

What value of measured EC50 is listed for 9H1: chicken antibody, VH SEQ ID NO 210, VL SEQ ID NO 232 (antibody, V domains shown, Synthetic 9H1, VH; Synthetic 9H1, VL) VH: AVTLDESGGGLQTPGGALSLVCKGSGFTFSDYGMGWMRQAPGKGLQYVARINSAGSDTNYGSAVKGRATISRDDGQSTVRLQLSSLRAEDTGIYYCTRGGGGASIDGWGHGTEVIVSS VL: ALTQPSSVSANPGETVKITCSGGGSYYGSYYYGWYQQKSPGSAPVTLIYNNNNRPSDIPSRFSGSTSGSTGTLTITGVRAEDEAVYYCGSFDSSTDAIFGAGTTLTVL ?
1.1

Need EC50, item 9A8: chicken antibody, VH SEQ ID NO 196, VL SEQ ID NO 218 (antibody, V domains shown, Synthetic 9A8, VH; Synthetic 9A8, VL) VH: AVTLDESGGGLQTPGGTLSLVCKASGFTFSSFNMFWVRQAPGKGLEWVAYIRNDGNSASYGPAVKGRATISRDNGQSTVRLQLNNLRAEDTATYYCAKTTCIGSGGCIDTWGHGTEVIVSS VL: ALTQPSSVSANPGETVKITCSGGSSDYGWFQQKSPGSAPVTVIYSNNQRPSGIPSRFSGSKSGSTGTLTITGVQAEDEAIYYCANVDYTDDVFGAGTTLTVL
2.3

Param item = 9A5: chicken antibody, VH SEQ ID NO 208, VL SEQ ID NO 230 (antibody, V domains shown, Synthetic 9A5, VH; Synthetic 9A5, VL) VH: AVTLDESGGGLQTPGGAVSLVCKASGFSISDYGMGWMRQAPGKGLQYVARIDHDGRYTDYGAVVKGRATISRDNGQSTVRLQLNNLRAEDTGTYYCTRGGGAASIDTWGHGTEVIVSS VL: ALTQPSSVSANPGETVKITCSGGGNYVGGYYYGWYQQKAPGSALVTLIYNNNNRPSNIPSRFSGSTSGSTSTLTITGVRAEDEAVYFCGSFDSSTDAIFGAGTTLTVL ; retrieve measured EC50.
0.29
